Tested on: NCI-H841 (Small Cell Lung Carcinoma);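 also: after 72 h of two-drug dosing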
assay.notes: Bliss excess, mean over the matrix (fraction); higher = more synergy
property.measured: Bliss excess
Numbers only.

[
  {
    "compound": "CC(=O)c1c(C)c2cnc(Nc3ccc(N4CCNCC4)cn3)nc2n(C2CCCC2)c1=O [Palbociclib] + CC1(C)CCC(CN2CCN(c3ccc(C(=O)NS(=O)(=O)c4ccc(NCC5CCOCC5)c([N+](=O)[O-])c4)c(Oc4cnc5[nH]ccc5c4)c3)CC2)=C(c2ccc(Cl)cc2)C1 [Venetoclax] (first compound max 10 µM, 7x7, partner max 1 µM)",
    "target.under.test": "NCI-H841 (Small Cell Lung Carcinoma)",
    "Bliss excess": -0.0463
  }
]

Fill in: NCI-H841 (Small Cell Lung Carcinoma) Bliss excess for C=CCn1c(=O)c2cnc(Nc3ccc(N4CCN(C)CC4)cc3)nc2n1-c1cccc(C(C)(C)O)n1 [AZD1775] + CCc1c2c(nc3ccc(O)cc13)-c1cc3c(c(=O)n1C2)COC(=O)[C@]3(O)CC [SN-38] (first compound max 1 µM, partner max 0.3 µM) = -0.0421
